Data provenance: ChEMBL document CHEMBL3044547

- Test system: Rattus norvegicus
- PROCEDURE TEXT: Anti-inflammatory activity against carageenaan-induced paw edema in Rattus norvegicus albino (rat) at 100 mg/kg, po administered 1 hr prior to carageenaan-challenge measured up to 3 hr
- Type: functional
Activity strictly less than 40% = true (1). Otherwise false (0).

- COMPOUND: "Cc1n[nH]c2nnc3nc(/C=C\\c4ccccc4)[nH]c3c12"
  QUALITATIVE LABEL: "true (1)"
- COMPOUND: "CC(C)Cc1ccc(C(C)C(=O)O)cc1 (stereo unspecified) [IBUPROFEN]"
  QUALITATIVE LABEL: "false (0)"
- COMPOUND: "Cc1n[nH]c2nnc3nc(CCCCC(=O)O)[nH]c3c12"
  QUALITATIVE LABEL: "true (1)"
- COMPOUND: "Cc1n[nH]c2nnc3nc(-c4ccccc4)[nH]c3c12"
  QUALITATIVE LABEL: "true (1)"
- COMPOUND: "Cc1n[nH]c2nnc3nc(CCC(=O)O)[nH]c3c12"
  QUALITATIVE LABEL: "true (1)"
